- SYSTEM_UNDER_TEST: Serine/threonine-protein kinase PLK3 (Homo sapiens)
- Sequence (Q9H4B4 whole entry): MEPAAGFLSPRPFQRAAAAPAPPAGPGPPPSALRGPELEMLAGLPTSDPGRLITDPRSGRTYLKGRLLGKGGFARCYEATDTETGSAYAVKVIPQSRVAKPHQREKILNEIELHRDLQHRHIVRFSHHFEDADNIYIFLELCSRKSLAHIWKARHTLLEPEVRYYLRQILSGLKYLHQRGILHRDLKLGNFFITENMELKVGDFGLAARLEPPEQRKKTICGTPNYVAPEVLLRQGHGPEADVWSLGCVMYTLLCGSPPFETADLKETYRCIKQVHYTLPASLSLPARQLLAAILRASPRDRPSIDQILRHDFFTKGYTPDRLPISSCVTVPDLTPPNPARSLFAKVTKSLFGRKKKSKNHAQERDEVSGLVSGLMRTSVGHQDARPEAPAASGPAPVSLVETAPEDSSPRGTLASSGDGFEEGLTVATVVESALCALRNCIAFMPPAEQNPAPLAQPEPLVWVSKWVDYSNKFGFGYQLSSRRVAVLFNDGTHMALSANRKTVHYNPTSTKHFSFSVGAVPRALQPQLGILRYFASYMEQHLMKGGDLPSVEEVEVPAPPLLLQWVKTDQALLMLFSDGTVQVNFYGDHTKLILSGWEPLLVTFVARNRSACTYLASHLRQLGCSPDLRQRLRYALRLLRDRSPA
READOUT_TYPE: IC50 (nM)

>  <MOLECULE_SMILES>
CC[C@@H]1C(=O)N(C)c2cnc(Nc3ccc(C(=O)N[C@H]4CC[C@@H](N5CCN(CC6CC6)CC5)CC4)cc3OC)nc2N1C(C)C

>  <RESULT>
56

$$$$

* * *

- SYSTEM_UNDER_TEST: Phosphatidylinositol 4,5-bisphosphate 3-kinase catalytic subunit delta isoform (Homo sapiens)
- Sequence (O00329 whole entry, canonical isoform): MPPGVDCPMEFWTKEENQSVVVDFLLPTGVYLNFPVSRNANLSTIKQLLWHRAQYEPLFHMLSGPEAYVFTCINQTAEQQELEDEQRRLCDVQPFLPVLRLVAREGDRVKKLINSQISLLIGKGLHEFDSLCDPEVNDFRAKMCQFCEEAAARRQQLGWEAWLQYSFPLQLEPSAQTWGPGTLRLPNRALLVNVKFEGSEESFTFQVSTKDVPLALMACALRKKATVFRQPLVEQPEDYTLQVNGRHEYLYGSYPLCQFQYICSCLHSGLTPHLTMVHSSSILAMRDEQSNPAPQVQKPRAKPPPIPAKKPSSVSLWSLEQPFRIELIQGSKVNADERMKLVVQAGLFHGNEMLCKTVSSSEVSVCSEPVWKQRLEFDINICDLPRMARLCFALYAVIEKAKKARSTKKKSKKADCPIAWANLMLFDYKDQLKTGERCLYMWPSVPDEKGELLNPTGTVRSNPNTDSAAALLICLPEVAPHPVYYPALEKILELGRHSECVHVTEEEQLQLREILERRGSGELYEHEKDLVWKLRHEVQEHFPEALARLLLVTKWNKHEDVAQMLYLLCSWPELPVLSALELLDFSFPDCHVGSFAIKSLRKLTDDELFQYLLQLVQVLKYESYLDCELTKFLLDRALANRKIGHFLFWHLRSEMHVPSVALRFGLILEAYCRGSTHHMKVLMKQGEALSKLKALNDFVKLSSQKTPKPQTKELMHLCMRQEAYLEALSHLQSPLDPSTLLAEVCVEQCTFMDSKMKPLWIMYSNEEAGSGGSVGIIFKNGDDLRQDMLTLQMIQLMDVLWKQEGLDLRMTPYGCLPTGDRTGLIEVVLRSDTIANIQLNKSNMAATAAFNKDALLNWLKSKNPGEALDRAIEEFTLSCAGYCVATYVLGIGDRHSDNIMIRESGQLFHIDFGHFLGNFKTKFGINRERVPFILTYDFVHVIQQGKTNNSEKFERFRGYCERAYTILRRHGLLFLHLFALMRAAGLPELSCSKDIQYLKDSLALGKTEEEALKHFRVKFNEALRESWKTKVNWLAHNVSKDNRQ

>  <COMPOUND>
CC(C)n1nc2ncnc(N)c2c1C1C=c2cc(O)ccc2=N1 (stereo unspecified)

>  <IC50 [nM]>
100

$$$$

* * *

- SYSTEM_UNDER_TEST: Bromodomain-containing protein 4 (Homo sapiens, UniProt O60885)
pKd: −log10 of the molar value.
READOUT_TYPE: pKd

>  <MOLECULE>
CC(C)n1nc2ncnc(N)c2c1C1C=c2cc(O)ccc2=N1 (stereo unspecified)

>  <RESULT>
5.76

$$$$

* * *

- SYSTEM_UNDER_TEST: DNA-dependent protein kinase catalytic subunit (Homo sapiens)
Quick list: IC50 per entry.
READOUT_TYPE: IC50

>  <MOLECULE>
CC(C)n1nc2ncnc(N)c2c1C1C=c2cc(O)ccc2=N1 (configuration not stated)

>  <SYSTEM_UNDER_TEST>
DNA-dependent protein kinase catalytic subunit (Homo sapiens)

>  <READOUT_TYPE>
IC50

>  <RESULT>
0.41 µM

$$$$
>  <MOLECULE>
O=c1cc(N2CCOCC2)oc2c(-c3ccc4c(c3)OCCO4)csc12

>  <SYSTEM_UNDER_TEST>
DNA-dependent protein kinase catalytic subunit (Homo sapiens)

>  <READOUT_TYPE>
IC50

>  <RESULT>
0.009 µM

$$$$

* * *

- SYSTEM_UNDER_TEST: Bromodomain testis-specific protein (Homo sapiens)
pIC50: −log10 of the molar value.

>  <COMPOUND>
O=NC1C=c2cc/c(=c3\nc(C4CCNCC4)[nH]c3=C3C=CNC=C3)cc2C1 (stereo not drawn)

>  <pIC50>
5.00

$$$$
>  <COMPOUND>
COc1cc(Nc2ncc(F)c(Nc3ccc4c(n3)N(COP(=O)(O)O)C(=O)C(C)(C)O4)n2)cc(OC)c1OC

>  <pIC50>
4.68

$$$$
>  <COMPOUND>
O=c1cc(N2CCOCC2)oc2c(-c3ccccc3)cccc12

>  <pIC50>
4.91

$$$$

* * *

- SYSTEM_UNDER_TEST: Proto-oncogene tyrosine-protein kinase receptor Ret (Homo sapiens)
- Sequence (P07949 whole entry): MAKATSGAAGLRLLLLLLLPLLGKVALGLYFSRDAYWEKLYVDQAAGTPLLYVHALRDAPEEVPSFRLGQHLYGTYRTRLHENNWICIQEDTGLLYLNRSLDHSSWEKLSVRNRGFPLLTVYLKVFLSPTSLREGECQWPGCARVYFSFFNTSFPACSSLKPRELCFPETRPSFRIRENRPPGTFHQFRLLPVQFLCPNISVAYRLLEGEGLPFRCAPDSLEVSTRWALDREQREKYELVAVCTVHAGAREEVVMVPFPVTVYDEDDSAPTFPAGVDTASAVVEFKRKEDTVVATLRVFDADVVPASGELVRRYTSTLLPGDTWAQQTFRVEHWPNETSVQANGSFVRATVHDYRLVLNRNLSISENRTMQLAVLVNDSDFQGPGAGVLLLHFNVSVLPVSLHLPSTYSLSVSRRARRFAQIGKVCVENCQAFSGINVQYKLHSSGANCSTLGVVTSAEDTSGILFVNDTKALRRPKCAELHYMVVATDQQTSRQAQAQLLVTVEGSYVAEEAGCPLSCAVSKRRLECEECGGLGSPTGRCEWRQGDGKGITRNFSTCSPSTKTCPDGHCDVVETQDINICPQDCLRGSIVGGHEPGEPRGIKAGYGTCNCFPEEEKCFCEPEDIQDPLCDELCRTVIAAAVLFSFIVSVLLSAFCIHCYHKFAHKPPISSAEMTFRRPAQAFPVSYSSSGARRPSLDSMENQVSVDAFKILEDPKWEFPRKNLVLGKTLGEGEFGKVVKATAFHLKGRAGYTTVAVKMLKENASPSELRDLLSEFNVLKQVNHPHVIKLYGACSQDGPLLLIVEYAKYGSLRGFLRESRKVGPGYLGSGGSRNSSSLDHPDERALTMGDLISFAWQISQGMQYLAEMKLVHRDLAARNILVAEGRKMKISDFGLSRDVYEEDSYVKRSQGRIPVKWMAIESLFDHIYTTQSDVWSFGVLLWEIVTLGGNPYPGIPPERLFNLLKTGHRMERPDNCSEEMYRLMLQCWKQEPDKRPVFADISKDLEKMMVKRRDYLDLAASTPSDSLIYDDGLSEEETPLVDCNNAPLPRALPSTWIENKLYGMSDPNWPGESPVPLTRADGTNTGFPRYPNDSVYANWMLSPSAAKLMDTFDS

>  <MOLECULE_SMILES>
Cc1cnc(Nc2ccc(N3CCN(C)CC3)cc2)nc1Nc1cccc(S(=O)(=O)NC(C)(C)C)c1

>  <IC50 [nM]>
169

$$$$
